Values from ChEMBL document CHEMBL5120889

Would you kindly list selectivity ratio for each of these molecules?
experiment: Selectivity index, ratio of CC50 for cytotoxicity in BALB/c mouse splenocytes to IC50 for immunosuppressive activity in BALB/c mouse splenocytes assessed as reduction in ConA-induced mouse T-lymphocytes proliferation; assay type: toxicity, cell-based; settings: read-out: Ratio CC50/IC50
# answer = number (no unit)

Task: Please report the recorded selectivity ratio for C[C@@H]1C(=O)CC[C@@H]2[C@@]3(C)CC[C@](C)([C@@H](O)CO)C[C@@H]3CC[C@]21C .
Result: 1

Task: Please report the recorded selectivity ratio for CC1=CC(=O)C[C@@H]2[C@@]3(C)CC[C@](C)(O)C[C@@H]3CC[C@@]12C .
Result: 4.2

Task: Please report the recorded selectivity ratio for CC1=C(O)C(=O)C[C@@H]2[C@@]3(C)CC[C@](C)(C(=O)O)C[C@@H]3CC[C@]12C .
Result: 1.9

* * *

assay: Cytotoxicity in BALB/c mouse Splenocyte assessed as reduction in cell viability incubated for 48 hrs by MTT assay; type: toxicity, cell-based; conditions: splenocytes
Attribute measured: CC50 at 48 h

Task: Please report the recorded CC50 at 48 h for CC1=C(O)C(=O)C[C@@H]2[C@@]3(C)CC[C@](C)(C(=O)O)C[C@@H]3CC[C@]12C .
Result: 6.46 µM

Task: Please report the recorded CC50 at 48 h for CC1=CC(=O)C[C@@H]2[C@@]3(C)CC[C@](C)(O)C[C@@H]3CC[C@@]12C .
Result: 13.2 µM

Task: Please report the recorded CC50 at 48 h for C[C@@H]1C(=O)CC[C@@H]2[C@@]3(C)CC[C@](C)([C@@H](O)CO)C[C@@H]3CC[C@]21C .
Result: 24.2 µM

* * *

assay: Selectivity index, ratio of CC50 for cytotoxicity in BALB/c mouse splenocytes to IC50 for immunosuppressive activity in BALB/c mouse splenocytes assessed as reduction in LPS-induced mouse B-lymphocytes proliferation; assay type: toxicity, cell-based; settings: read-out: Ratio CC50/IC50
Attribute measured: selectivity ratio
# answer = number (no unit)

Task: Please report the recorded selectivity ratio for C[C@@H]1C(=O)CC[C@@H]2[C@@]3(C)CC[C@](C)([C@@H](O)CO)C[C@@H]3CC[C@]21C .
Result: 2.4

Task: Please report the recorded selectivity ratio for CC1=C(O)C(=O)C[C@@H]2[C@@]3(C)CC[C@](C)(C(=O)O)C[C@@H]3CC[C@]12C .
Result: 2.1

Task: Please report the recorded selectivity ratio for CC1=CC(=O)C[C@@H]2[C@@]3(C)CC[C@](C)(O)C[C@@H]3CC[C@@]12C .
Result: 5.9
